Tested on: pig RBC
Test: Hemagglutination of pig RBC by human serum: sugar inhibition
Format: cell-based
Settings: inhibition of pig RBC hemagglutination by pooled human AB serum
EXPERIMENTAL_ENDPOINT: Inhibitory Concentration (M)

1) OC[C@H]1O[C@H](OC[C@H]2O[C@H](OC[C@H]3O[C@H](O[C@]4(CO)O[C@H](CO)[C@@H](O)[C@@H]4O)[C@H](O)[C@@H](O)[C@@H]3O)[C@H](O)[C@@H](O)[C@H]2O)[C@H](O)[C@@H](O)[C@H]1O [Stachyose, α-D-gal-[1->6]-α-D-Glc-[1->2]-β-D-Fru] = 0.002
2) O=C[C@H](O)[C@@H](O)[C@H](O)[C@H](O)CO[C@H]1O[C@H](CO)[C@H](O)[C@H](O)[C@H]1O = 0.0005
3) O=C[C@H](O)[C@@H](O)[C@@H](O)[C@H](O)CO [Galactose, D(+)galactose] = 0.002
